So I've got a bunch of compounds here, and I need their NADH oxidase activity values.
test system: recombinant Arabidopsis ENOX1; assay: NADH oxidase activity of IEF-purified recombinant Arabidopsis ENOX1; assay type: biochemical; conditions: inhibitor 100 μM; average of 3 determinations ± SD; None = 2.7 ± 0.4
Answers are plain numbers, in µmol/min/mg.

compound	experimentalTarget	measValue
O=C(O)c1cc(O)c(O)c(O)c1	recombinant Arabidopsis ENOX1	3.0
N.N.[Cl][Pt][Cl] [Cis-platinum]	recombinant Arabidopsis ENOX1	3.5
CC(=O)Nc1cc(NS(=O)(=O)C(F)(F)F)c(C)cc1C [Mefluidide]	recombinant Arabidopsis ENOX1	1.8

Let's switch to this compound now.
Entry `CCS(=O)(=O)c1nc2ccccn2c1S(=O)(=O)NC(=O)Nc1nc(OC)cc(OC)n1` — recorded NADH oxidase activity = 1.2
